Test system: Escherichia coli TOP10
Assay: shrunken log2 fold change of peptide-encoding DNA abundance (4.5 h post-induction vs induction); higher = less antimicrobial activity (less host growth inhibition)
Settings: time post-induction: 4.5 h; library: site-saturation at positions 5, 18, 19, 20
MEASURE NAME: shrunken log2 fold change

Below are worked cases with known answers.
> print(dat)
          residue.sequence   reading
1  RRIRSRPPRLPRPRPRPLQHPRP  -0.00742
2  RRIRERPPRLPRPRPRPYIIPRP    -0.837
3  RRIRFRPPRLPRPRPRPKSFPRP   -0.0388

Please examine the following record next.
shrunken log2 fold change for RRIRIRPPRLPRPRPRPIEKPRP is -0.0304

* * *

Test system: Escherichia coli TOP10
Test: shrunken log2 fold change of peptide-encoding DNA abundance (4.5 h post-induction vs induction); higher = less antimicrobial activity (less host growth inhibition)
Conditions: time post-induction: 4.5 h; library: site-saturation at positions 5, 18, 19, 20
Listed here are sequences together with their documented shrunken log2 fold change.

Below are worked cases with known answers.
> print(dat)
          residue.sequence  reading
1  RRIRDRPPRLPRPRPRPQNSPRP    -0.24
2  RRIRKRPPRLPRPRPRPYWNPRP   -0.106
3  RRIRCRPPRLPRPRPRPGSVPRP    0.102
4  RRIRLRPPRLPRPRPRPWDCPRP  -0.0998
5  RRIRNRPPRLPRPRPRPTHTPRP   -0.191
6  RRIRQRPPRLPRPRPRPIRIPRP   0.0373
7  RRIRQRPPRLPRPRPRPTDTPRP   -0.339

Please examine the following record next.
shrunken log2 fold change for RRIRPRPPRLPRPRPRPGGHPRP is 0.372

* * *

System: Escherichia coli TOP10
Experiment: shrunken log2 fold change of peptide-encoding DNA abundance (4.5 h post-induction vs induction); higher = less antimicrobial activity (less host growth inhibition)
Details: time post-induction: 4.5 h; library: site-saturation at positions 5, 18, 19, 20
Listed here are sequences together with their documented shrunken log2 fold change.
Give the figure by itself; no unit, no explanation.

Below are worked cases with known answers.
> print(dat)
          residue.sequence  reading
1  RRIRYRPPRLPRPRPRPMGCPRP  -0.0637
2  RRIRVRPPRLPRPRPRPGRYPRP    0.303

shrunken log2 fold change for RRIRGRPPRLPRPRPRPYFNPRP is -0.439

shrunken log2 fold change for RRIRWRPPRLPRPRPRPAESPRP is 0.0626

shrunken log2 fold change for RRIRSRPPRLPRPRPRPQMGPRP is -0.046

shrunken log2 fold change for RRIRCRPPRLPRPRPRPWYFPRP is -0.264

shrunken log2 fold change for RRIRQRPPRLPRPRPRPARLPRP is 0.0512

shrunken log2 fold change for RRIRRRPPRLPRPRPRPTNLPRP is 0.068

* * *

Test system: Escherichia coli TOP10;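 further: peptides expressed intracellularly from a pBAD plasmid library in pooled LB shake-flask culture, induced with 0.3% L-arabinose, DNA abundance read by NGS, three biological replicates, DESeq2 with apeglm shrinkage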
Experiment: shrunken log2 fold change of peptide-encoding DNA abundance (4.5 h post-induction vs induction); higher = less antimicrobial activity (less host growth inhibition)
Conditions: time post-induction: 4.5 h; library: site-saturation at positions 5, 18, 19, 20
Listed here are sequences together with their documented shrunken log2 fold change.
Give the figure by itself; no unit, no explanation.

Below are worked cases with known answers.
> print(dat)
          residue.sequence  reading
1  RRIRNRPPRLPRPRPRPQHRPRP   -0.215
2  RRIRLRPPRLPRPRPRPDNFPRP   0.0569
3  RRIRPRPPRLPRPRPRPVRTPRP    0.385
4  RRIRIRPPRLPRPRPRPFRYPRP    -0.42
5  RRIRRRPPRLPRPRPRPRDDPRP     0.14

shrunken log2 fold change for RRIRFRPPRLPRPRPRPMGMPRP is -0.0492

shrunken log2 fold change for RRIRSRPPRLPRPRPRPSTGPRP is -0.417

shrunken log2 fold change for RRIRLRPPRLPRPRPRPLFQPRP is -0.322

shrunken log2 fold change for RRIRHRPPRLPRPRPRPAGWPRP is 0.449
